test: Selectivity index, ratio of CC50 for African green monkey Vero cells to EC50 for Chikungunya virus; assay type: toxicity, cell-based; conditions: read-out: Ratio CC50/EC50
measurement_kind: selectivity ratio

>>> print(df.to_string())
                                   molecule   measurement_kind  reading
0  CCOc1ccc(/C=N/NC(=O)/C=C/c2ccc(C(C)(C)C)cc2)cc1OCC  selectivity ratio       32
1  CCOc1ccc(/C=N/NC(=O)C2CC2c2ccc(C(C)(C)C)cc2)cc1OCC (configuration not stated)  selectivity ratio       14

###

Below: a set of entries, each annotated with reported IC50.
test system: Chikungunya virus; assay: Antiviral activity against Chikungunya virus by cell-based assay; assay type: functional
measurement_kind: IC50 (µM)

>>> print(df.to_string())
                                   molecule  measurement_kind  units  reading
0  CCOC(=O)c1c(C[S+]([O-])c2ccccc2)n(C)c2cc(Br)c(O)c(CN(C)C)c12 (stereo not drawn)              IC50     µM     54.5
1  CCOC(=O)c1c(CS(=O)(=O)c2ccccc2)n(C)c2cc(Br)c(O)c(CN(C)C)c12              IC50     µM     56.4
2  CCOC(=O)c1c(CSc2ccccc2)n(C)c2cc(Br)c(O)c(CN(C)C)c12 [UMIFENOVIR]              IC50     µM     12.2

###

test system: Chikungunya virus; assay: Antiviral activity against Chikungunya virus infected in BHK21 cells assessed as inhibition of viral replication after 24 hrs; format: functional, cell-based; details: BHK-21, 24 h
pEC50: −log10 of the molar value.
measurement_kind: pEC50

                                   compound  reading
0  COC(=O)C[C@](O)(CCC(C)(C)O)C(=O)O[C@@H]1C(OC)=C[C@]23CCCN2CCc2cc4c(cc2[C@H]13)OCO4 [HARRINGTONINE]     6.62
